- Test summary: qHTS RealTime-Glo MT Cell Viability Assay in HepG2 cells - 40 hour (AID 1224870); further: nearly all actives have a fitted effect of over 50% in size
- Assay conditions: RealTime-Glo luminescence; series mostly up to 76.8 µM
Inconclusive results are not listed. The source made the active and inactive calls. The call rests on the fitted dose curve; in most records, active means well fitted cell-killing curve with a large enough effect in the repeat runs; inconclusive means weak or mixed curves, or effect the other way; inactive means flat fitted curve, though single readings scatter.
The categories you may choose from are True (active), False (inactive)

Use the examples below as a reference point.
> print(dat)
                                   compound  assigned.category
1           Cc1ccnc2c1NC(=O)c1cccnc1N2C1CC1              False
2  CCN1CCCC1CNC(=O)c1cc(S(=O)(=O)CC)c(N)cc1OC (stereo not drawn)              False
3  C=C(C)C1CC=C(C)C(OC(C)=O)C1 (stereo not drawn)              False
4                             CC(=O)CC(C)=O              False
5                         Cc1cccc2n[nH]nc12              False
6      Clc1ccc2c(c1)C(N1CCNCC1)=Nc1ccccc1O2               True

(Q) Which outcome was assigned to C=C(C)C(=O)O in this test?
(A) False

(Q) Which outcome was assigned to O=C(Oc1ccccc1)c1ccccc1O in this test?
(A) False

(Q) Which outcome was assigned to CCN(CC)c1ccc2c(C)cc(=O)oc2c1 in this test?
(A) False

(Q) Which outcome was assigned to OCC(CO)N[C@H]1C[C@](O)(CO)[C@@H](O)[C@H](O)[C@H]1O in this test?
(A) False

(Q) Which outcome was assigned to O=Cc1ccc(Cl)cc1 in this test?
(A) False

(Q) Which outcome was assigned to Nc1ccc2cc3ccccc3cc2c1 in this test?
(A) False

(Q) Which outcome was assigned to CCc1cc(C(C)(C)C)c(O)c(C(C)(C)C)c1 in this test?
(A) False

Just for reference, PubChem BioAssay (Tox21) is where these values come from.
